Where these numbers come from: patent EP0193189A1

- Test system: brown rice planthopper (Nila^parvata luqens)
- assay-overview: Test Example 4: rice seedling dip test, brown rice planthopper
- Type: in vivo
- test-parameters: 24 h; rice seedlings dipped 1 minute; adults; after one day; read-out: LC50 value (ppm)
reported-property: LC50

Solved cases below.
C#CC(C)(CCCc1ccc(F)c(Oc2ccccc2)c1)c1ccc(OCC)cc1 (stereo not shown) [(4)] ... 24 µg/mL
CCOc1ccc(C(C)(C)COCc2cccc(Oc3ccccc3)c2)cc1 [(B), reference compound] ... 110 µg/mL
C#CC(C)(CCCc1ccc(F)c(Oc2ccccc2)n1)c1ccc(OCC)cc1 (stereo not shown) [(20)] ... 25 µg/mL

Sample C#CC(C)(CCCc1ccc(F)c(Nc2ccccc2)c1)c1ccc(OCC)cc1 (stereo not shown) [(21)] ; LC50 observed: 15 µg/mL
